In this section, each of the compounds is paired with its reported pKd.
system_under_test: Dihydrofolate reductase (Escherichia coli, UniProt P0ABQ4)
Sequence (P0ABQ4 whole entry, looked up): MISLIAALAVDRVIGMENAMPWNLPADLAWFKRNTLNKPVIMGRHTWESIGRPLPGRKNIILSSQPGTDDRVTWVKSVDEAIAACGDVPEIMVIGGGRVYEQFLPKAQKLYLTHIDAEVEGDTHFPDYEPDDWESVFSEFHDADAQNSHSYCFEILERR
protocol_details: Thermodynamic Dissociation Constant for compound-Phe31-dihydrofolate reductase (DHFR) complex at pH 7
# pKd is unitless: minus log10 of the molar concentration; print number only

Report pKd for `NC(=O)c1ccc[n+]([C@H]2O[C@@H](COP(=O)([O-])OP(=O)(O)OC[C@H]3O[C@@H](n4cnc5c(N)ncnc54)[C@H](OP(=O)(O)O)[C@@H]3O)[C@H](O)[C@@H]2O)c1` 6.42

Report pKd for `Nc1nc2ncc(CNc3ccc(C(=O)N[C@@H](CCC(=O)O)C(=O)O)cc3)nc2c(=O)[nH]1` 6.09

From: ChEMBL document CHEMBL1124276
